Cited source for all entries: PubChem BioAssay

# target.system: Receptor tyrosine-protein kinase erbB-2 (Homo sapiens)
# test.details: reducers of endogenous Her2 protein level, primary screen, SKBR3 breast tumor cells, AlphaScreen, ATP viability (AID 461);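 note: lower value means less Her2 protein in the cells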
# assay.setup: 18-24 h, at 10 µM, active compounds read low
observed.property: Her2 level (%)

compound: CCOc1ccccc1OCC(=O)Nc1nnc(COC)s1
observed.property: Her2 level
numeric.value: 103
//
compound: Cc1cccc2cc(CN(CCN3CCCC3)C(=O)NC3CCCCC3)c(=O)[nH]c12
observed.property: Her2 level
numeric.value: 78.5
//
compound: CCOC(=O)C1CCCN(c2c(NCc3ccco3)c(=O)c2=O)C1 (configuration not stated)
observed.property: Her2 level
numeric.value: 108
//
compound: CN1C(=O)CC(C(=O)Nc2ccc(F)cc2)SC1=Nc1ccc2c(c1)OCO2 (configuration not stated)
observed.property: Her2 level
numeric.value: 73
//
compound: Cc1cc(C)n(-c2nnc(C)n2/N=C/c2ccccc2F)n1
observed.property: Her2 level
numeric.value: 89
//
compound: CCCOc1ccc(/C(O)=C2/C(=O)C(=O)N(CCCOC)C2c2ccncc2)cc1 (configuration not stated)
observed.property: Her2 level
numeric.value: 84
//
compound: Cc1ccc(-c2nnn(CC(=O)N(CC3CCCO3)C(C(=O)NC(C)(C)C)c3ccc(F)cc3)n2)o1 (configuration not stated)
observed.property: Her2 level
numeric.value: 96
//
compound: FC(F)Sc1nnc(-c2cccs2)n1-c1ccccc1
observed.property: Her2 level
numeric.value: 92
//
compound: O=c1sc(Nc2ccccc2)nc2ccsc12
observed.property: Her2 level
numeric.value: 47
//
compound: OCc1nc(CO)n(Cc2ccccc2)n1
observed.property: Her2 level
numeric.value: 84
//
compound: Cc1cc(C)c2c(C)nn(C3CCCCC3)c2n1
observed.property: Her2 level
numeric.value: 114
//
compound: COc1ccc(C(=O)NCc2ccccc2OC)cc1
observed.property: Her2 level
numeric.value: 100
//
compound: CCn1c(C(=O)OC)cc2c1ccn2-c1ccc(F)cc1
observed.property: Her2 level
numeric.value: 80.5
//
compound: Cc1ccc(-c2cc(C(=O)O)n[nH]2)o1
observed.property: Her2 level
numeric.value: 128
//
compound: COCCNC(=O)CN1CCN(C(c2ccccc2)c2ccccc2)CC1
observed.property: Her2 level
numeric.value: 117
//
compound: Cn1c(C(=O)N2CCCC(C(=O)NCCCc3ccccc3)C2)cc2sccc21 (configuration not stated)
observed.property: Her2 level
numeric.value: 83.5
//
compound: COCCCNC(=O)c1ccccc1NS(=O)(=O)c1ccc(C)cc1
observed.property: Her2 level
numeric.value: 98
//
compound: O=c1[nH]c(NCc2ccco2)nnc1Cc1ccccc1Cl
observed.property: Her2 level
numeric.value: 84
//
compound: N#Cc1ccccc1NC(=O)CSc1nnc(-c2ccccc2)n1-c1ccccc1
observed.property: Her2 level
numeric.value: 83
//
compound: CC(NC(=O)C1CCCN(S(=O)(=O)c2cccs2)C1)c1ccccc1 (configuration not stated)
observed.property: Her2 level
numeric.value: 80.5
//
compound: CCOc1cc(N2CCOCC2)c(OCC)cc1NC(=O)CSc1cccc[n+]1[O-]
observed.property: Her2 level
numeric.value: 93
//
compound: Cc1occc1-c1nnc(SCC(=O)NCC2CCCO2)n1C (configuration not stated)
observed.property: Her2 level
numeric.value: 96.5
//
compound: COc1ccc(NC(=O)C(C)NS(=O)(=O)c2ccccc2)cc1Cl (configuration not stated)
observed.property: Her2 level
numeric.value: 99
//
compound: Cc1ncc([N+](=O)[O-])n1CCO
observed.property: Her2 level
numeric.value: 108
//
compound: CCCCSc1nc2c(cnn2-c2ccc(Cl)cc2)c(=O)[nH]1
observed.property: Her2 level
numeric.value: 83.5
//
compound: CCCNS(=O)(=O)c1ccc(C(=O)NCC2CCCO2)cc1 (configuration not stated)
observed.property: Her2 level
numeric.value: 74.5
//
compound: O=C(c1cn(-c2ccccc2)nc1-c1cccs1)N1CCN(c2ccccn2)CC1
observed.property: Her2 level
numeric.value: 79.5

----------
# test.details: HUVEC growth inhibition – cell-based, human, primary screen (AID 575);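 note: 100% = median of untreated cell wells with 0.1% DMSO on each plate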
# assay.setup: HUVEC proliferation, CellTiter-Glo luminescence, 72 h; at 10 µM; active compounds read low
Square brackets hold non-standard residues; d marks the D form. Peptide text beside a SMILES is read from it. ξ: configuration not given here. ξV = CC(C)C(N)C(=O)O

molecule: CC(C)CSc1nc2ccccc2n1CC(N)=O
viability / %: 87.6
//
molecule: CC(=O)NS(=O)(=O)c1ccc(N)cc1
viability / %: 90
//
molecule: CCCc1nnc(NC(=O)CCC(=O)N2CCN(CCOc3ccc(C)cc3)CC2)s1
viability / %: 92
//
molecule: O=C(Nc1ccccc1)N(O)c1ccc(Cl)cc1
viability / %: 88.5
//
molecule: CCOC(=O)C1C2C=CC3(CN(c4cccc(Cl)c4)C(=O)C13)O2 (centres undefined)
viability / %: 91.2
//
molecule: CCCCCC(=O)N1CC2(CC)CN(C(=O)CCCCC)CC(CC)(C1)C2=O
viability / %: 91.7
//
molecule: O=C(CSc1ncccn1)NCc1ccccc1
viability / %: 106
//
molecule: CC(=O)NC(C(=O)NCC(N)=O)C(C)C (centres undefined) (Ac-[ξV]-Gly-NH2)
viability / %: 100
//
molecule: CC(=O)C1=C(O)C(=O)N(c2ccc(C(=O)O)cc2)C1c1ccccc1 (centres undefined)
viability / %: 117

----------
# test.details: Restrictive medium S. cerevisiae growth inhibition, OD615, pilot screen of yeast lifespan reduction project, restrictive growth control (AID 706);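 note: modified DeaD lifespan yeast strain shifted to restrictive glucose medium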
# assay.setup: OD615, 48 h, at 10 µM, active compounds read high
observed.property: growth inhibition (%)

compound: Cc1cccc(-n2c(CNC(=O)c3ccccc3)nnc2SCC(=O)Nc2nccs2)c1
observed.property: growth inhibition
numeric.value: 15.6
//
compound: O=C1C2CCCN2C(c2ccccc2F)N1c1cccc(Cl)c1 (stereo unspecified)
observed.property: growth inhibition
numeric.value: 1.65
//
compound: Cc1c(C(=O)NCC2CCCO2)oc2ccc(S(=O)(=O)N3CC(C)CC(C)C3)cc12 (stereo unspecified)
observed.property: growth inhibition
numeric.value: 14.2
//
compound: CCOC(=O)c1ccccc1NC(=O)CC1Nc2ccccc2NC1=O (stereo unspecified)
observed.property: growth inhibition
numeric.value: -8.37
//
compound: N=c1c2c3c(sc2nc2n1CCCCC2)CCCCC3
observed.property: growth inhibition
numeric.value: -13.7
//
compound: CCOC(=O)c1ccc(Nc2cc(C)nc(-c3ccccc3O)n2)cc1
observed.property: growth inhibition
numeric.value: -3.53
//
compound: CCOC(=O)C1Cc2ccccc2C(=O)O1 (stereo unspecified)
observed.property: growth inhibition
numeric.value: -2.44
//
compound: CC(C)C(NC(=O)C12CC3CC(CC(C3)C1)C2)C(=O)NC1=NCCS1 (stereo unspecified)
observed.property: growth inhibition
numeric.value: 7.3
//
compound: CCC1(C(=O)O)NC(c2cccc(OC)c2O)C2C(=O)N(c3ccccc3)C(=O)C21 (stereo unspecified)
observed.property: growth inhibition
numeric.value: 1.83
//
compound: CC(=O)NC(C)(C)C1CC=C(C)/C(=N\O)C1 (stereo unspecified)
observed.property: growth inhibition
numeric.value: -1.12
//
compound: CCOC(=O)c1c(NC(=O)OC)sc(C(=O)N(CC)CC)c1C
observed.property: growth inhibition
numeric.value: -12.4
//
compound: Cc1ccc(C2CC(c3ccco3)n3nc(N)nc3N2)cc1 (stereo unspecified)
observed.property: growth inhibition
numeric.value: 11.9
//
compound: Cc1ccc(CN2C(=O)/C(=C3\SC(N4CCOCC4)=NC3=O)c3cc(Br)ccc32)cc1
observed.property: growth inhibition
numeric.value: -12.1
//
compound: CCOC(=O)C1CCN(C(=O)Cc2c(C(=O)O)[nH]c3ccccc23)CC1
observed.property: growth inhibition
numeric.value: -1.88
//
compound: CCN(Cc1ccncc1)C(=O)c1cccc(S(=O)(=O)N2CCOCC2)c1
observed.property: growth inhibition
numeric.value: 6.31
//
compound: O=C(NCc1ccc2c(c1)OCO2)C1CCC(CNc2c(N3CCCC3)c(=O)c2=O)CC1 (stereo unspecified)
observed.property: growth inhibition
numeric.value: -7.12
//
compound: Cc1cc(C)n(C(=O)CCCC(=O)n2nc(C)cc2C)n1
observed.property: growth inhibition
numeric.value: -10.9
//
compound: Cc1ccc(Cl)cc1N1CCN(S(=O)(=O)c2cccc(S(=O)(=O)N3CCCC3)c2)CC1
observed.property: growth inhibition
numeric.value: 12
//
compound: CCOc1ccc(N(CC(=O)O)S(=O)(=O)c2cccnc2)cc1
observed.property: growth inhibition
numeric.value: -2.17
//
compound: CN1CCN(c2nc3c(c(=O)n(C)c(=O)n3C)n2CCSc2nc3ccccc3s2)CC1
observed.property: growth inhibition
numeric.value: -16.2
//
compound: O=C(CSc1oc(-c2ccc(F)cc2)nc1S(=O)(=O)c1ccc(F)cc1)NCC1CCCO1 (stereo unspecified)
observed.property: growth inhibition
numeric.value: -3.3
//
compound: COC(=O)C1C(=O)CC(C)(O)C(C(=O)OC)C1c1ccc2c(c1)OCO2 (stereo unspecified)
observed.property: growth inhibition
numeric.value: -17
//
compound: CCC(C)NC(=O)C1CN(S(=O)(=O)c2ccccc2)CCN1S(=O)(=O)c1ccccc1 (stereo unspecified)
observed.property: growth inhibition
numeric.value: -6.21
//
compound: COc1ccccc1N1CCN(CC(=O)Nc2cc(C)nn2-c2nc(C)cc(C)n2)CC1
observed.property: growth inhibition
numeric.value: -18.8
//
compound: CCCn1cc(S(=O)(=O)CC(=O)N2CCc3ccccc32)c2ccccc21
observed.property: growth inhibition
numeric.value: -8.48
//
compound: COc1cc(CCC(=O)N2CCN(c3ccc(N4CCOCC4)nn3)CC2)cc(OC)c1OC
observed.property: growth inhibition
numeric.value: 14.6
